Here's what we have: log10 of Ki numbers for UniProtKB P00734.
Hi team, quick reminder: these entries are log10 of Ki (nM).

Ask | Fill in: log10 of Ki of CN(C)c1cccc2c(S(=O)(=O)N[C@@H](Cc3ccc(C(N)NN)cc3)C(=O)N(C)C3CCCC3)cccc12 (some centres not stated) is ___
Reply | -0.52

Ask | Ok, now CN(C(=O)[C@H](Cc1ccc(C(N)NN)cc1)NS(=O)(=O)c1cccc2ccccc12)C1CCCC1 (some centres not stated)
Reply | 0.90

Ask | How about this molecule: CN(C(=O)[C@H](Cc1ccc(C(N)NN)cc1)NS(=O)(=O)c1ccc2c(c1)CCCCC2)C1CCCC1 (some centres not stated)
Reply | -1.35

Ask | Again, but for CN(C(=O)[C@H](Cc1ccc(CCN)cc1)NS(=O)(=O)c1ccc2ccccc2c1)C1CCCC1
Reply | 0.52

Ask | Item: CN(C(=O)[C@H](Cc1ccc(C(N)NN)cc1)NS(=O)(=O)c1ccc2cc3ccccc3cc2c1)C1CCCC1 (some centres not stated)
Reply | -1.00

Ask | Try this molecule too: CN(C(=O)[C@H](Cc1ccc(C(N)NN)cc1)NS(=O)(=O)Cc1ccccc1)C1CCCC1 (some centres not stated)
Reply | 1.26

Ask | Now the molecule CN(C(=O)[C@H](Cc1ccc(C(N)NN)cc1)NS(=O)(=O)c1cccc2c1CCCC2)C1CCCC1 (some centres not stated)
Reply | 0.58
